- assay_summary: yeast display, Sf9 membrane polyspecificity reagent, FACS + sequencing; frameworks hold sequencing errors
reported_property: polyreactivity (PSR sort gate)

{"columns": ["sequence_chain", "polyreactivity (PSR sort gate)"],
 "data": [
  ["QDQLVESAGGLVQAGGSLRLSCAASGSTFVRNAMGWYRQEPGKERELVAAISVDGSSTYYADSVKGRFTISRDIAKNTVYLQMNSLKPEVTAVYYCNADWDYRDFYAITYDFWGQGTQVTVSS", "low polyreactivity"],
  ["QVQLVESGGGLVQAGGSLRLSCAASGRIISRYAMGWYRQAPGKERELVAAISRRGGSTYYADSVKGRFTISRDNAKNTVYLQMNSLKPEDTAVYYCAAVRRKTAGGLEDYWGQGTQVTVSS", "high polyreactivity"],
  ["QVQLVESGGGLVQAGGSLRLSCAASGSTFAPNAMGWYRQAPGKERELVAAISSGGDSTNYADSVKGRFTISRDNAKNTVYLQMNSLKPEDTAVYYCAHGYWFVAYDYWGQGTQVTVSS", "low polyreactivity"],
  ["QVQLVESGGGLVQAGGSLRLSCAASGRTFDVYAMGWYRQAPGKERELVATISYRSARTYYADSVKGRFTISRDNAKNTVYLQMNSLKPEDTAVYYCNAQSWRLYGHCYYWGQGTQVTVSS", "high polyreactivity"]
]}

input: Field request: polyreactivity (PSR sort gate) | item: `QVQLVESGGGLVQAGGSLRLSCAASGRTLTQYAMGWYRQAPGTERELVAAINTSGDSTYYADSVKGRFTISRDNAKNTVYLQMNSLKPEDTAVYYCAADGFWSQLYHLYNGYDYWGQGTQVTVSS`
output: low polyreactivity

###

- assay_summary: yeast display, Sf9 membrane polyspecificity reagent, FACS + sequencing; frameworks hold sequencing errors
reported_property: polyreactivity (PSR sort gate)

{"columns": ["sequence_chain", "polyreactivity (PSR sort gate)"],
 "data": [
  ["QVQLVESGGGLVQAGGSLRLSCAASGSTFSSNAMGWYRQAPGKERELVAAINRRGGTYYADSVKGRFTISRDNAKNTVYLQMNSLKPEDTAVYYCAAASPYHEYDYWGQGTQVTVSS", "low polyreactivity"],
  ["QVQLVESGGGLVQAGGSLRLSCAASGFIFPYYAMGWYRQAPGKERELVAAISARGGSTYYADSVKGRFTISRDNAKNTFYLQMNRLKPEDTAVYYCAAPYPRWTGKDYDYWGQGTQVTVSS", "high polyreactivity"],
  ["QVQLVESGGGLVQAGGSLRLSCAASGRTFSPNAMGWYRQAPGKERELVASITAIGSRTYYADSVKGRFTISRDKAKNTVYLQMNSLKPEDTAVYYCAKDDELYGTKMYSWGQGTQVTVSS", "low polyreactivity"],
  ["QVQLVESGGGLVQAGGSLRLSCAASGRIFSGYAMGWYRQAPGKERELVAAITSRSGSTYYADSVKGRFTISRDNAKNTVYFQMNSLKPEDTAVYYCAAEYVRFYWYTSDYWGQGTQVTVSS", "low polyreactivity"]
]}

Attention now shifts to the item below.
input: I have this sequence here, `QVQLVESGGGLVQAGGSLRLSCAASGRIFPGYAMGWYRQAPGKERELVAAISGGGGRTYYADSVKGRFTISRDNAKNTVYLQMNSLKPEDTAVYYCAADTTPPRGFDYWGQGTQVTVSS` , and I need its recorded polyreactivity (PSR sort gate).
output: high polyreactivity
